Recorded values, source PubChem BioAssay (NCI).

system: A498 renal; assay: NCI-60 one-dose screen, 48 h; conditions: 10 µM unless noted
This is part of a sample that, as a whole, favours compounds with a hit. Of some 83,000 tested, about 20% had one in any assay. Calls of active or inactive are those of the source. Rule for the calls: active = growth percent below 10; inactive = the rest.
I would appreciate it if you answered using one of these outcomes: yes for active, no for inactive

A selection of reference data follows.
QUERY: Tell me the recorded outcome of this test for Clc1ccc2[nH]cc(-c3nn4cc(-c5ccncc5)nc4s3)c2c1 .
RESULT: no

QUERY: Called result for Cc1csc(/N=C(N)/N=C(\N)c2cccc(C#N)c2)n1
RESULT: no

QUERY: So what was the verdict on C(=N\Nc1nc(N/N=C/c2ccc3c(c2)OCO3)nc(N2CCCCC2)n1)/c1ccc2c(c1)OCO2 in this test?
RESULT: no

QUERY: // return assay outcome for COc1ccc(/C(=N\N=C(N)N)c2ccc(Cl)cc2)cc1OC
RESULT: no

Next, consider the following compound.
QUERY: Just curious, what result did COc1ccc(C(C)=C(c2ccc(OCCN(C)C)cc2)c2ccc(OCCN(C)C)cc2)cc1 get here?
RESULT: yes

---

Recorded growth by entry
system: OVCAR-4 ovarian; assay: NCI-60 one-dose screen, 48 h (100 = growth as untreated, 0 = no growth, -100 = all killed); conditions: 10 µM unless noted
This is part of a sample that, as a whole, favours compounds with a hit. Of some 83,000 tested, about 20% had one in any assay. Activity calls are given as the source filed them. The calls were made as follows: active = growth percent below 10; inactive = the rest.

QUERY: Consider the compound O=C(CCCCCCN1CC(=O)N2[C@@H](c3ccccc3Br)c3[nH]c4ccccc4c3C[C@H]2C1=O)NO . State its measured growth.
RESULT: 88.1% (inactive)

QUERY: Supply growth value. Item: O=C1CSC(c2cn(-c3ccccc3)nc2-c2ccc(Cl)cc2)N1c1ccccc1 (centres undefined)
RESULT: 110% (inactive)

QUERY: Let me know recorded growth for CCCCSC1=C(Cl)CN(c2ccc(Cl)cc2)C1=O , thanks.
RESULT: 104% (inactive)

Others:
QUERY: Give reported growth value for CCOC(=O)Nc1ccc2c(ccn2C(=O)c2cccc(F)c2)c1
RESULT: 68.8% (inactive)

QUERY: Answer with the recorded growth of CCOC(=O)C1=C(C)NC(C)=C(C(=O)OCc2ccccc2)C1c1cccc(C#N)c1 (centres undefined) only.
RESULT: 71.5% (inactive)

QUERY: Given O=C(CN1CCN(c2cc(=O)[nH]c3ccc(F)cc23)CC1)N(c1ccccc1)c1ccccc1 , respond with its growth.
RESULT: 101% (inactive)

---

tested on: M14 melanoma; experiment: NCI-60 one-dose screen, 48 h; settings: 10 µM unless noted
This is part of a sample that, as a whole, favours compounds with a hit. Of some 83,000 tested, about 20% had one in any assay. Activity calls are given as the source filed them. The calls were made as follows: active = growth percent below 10; inactive = the rest.
Your reply should match one of these outcome classes. Y for active, N for inactive

QUERY: # outcome recorded in this test, key = N#C/C(=C\c1cccc2c1OCO2)C(=O)Nc1sc2c(c1C#N)CCCC2
RESULT: N

QUERY: Status in this test for CNC(=O)c1cc(-n2ccc3cc(NC(=O)Nc4ccc(N5CCN(C)CC5)c(C(F)(F)F)c4)ccc32)ccn1 ?
RESULT: N

QUERY: Per the records of this test, what outcome belongs to O=C1Nc2ccc(F)cc2/C1=C\C(=O)c1ccc(NS(=O)(=O)c2ccccc2)cc1 ?
RESULT: N

QUERY: Returns: the outcome recorded for O=C(/C=C/c1cccc(F)c1)c1cccc(OCCCCOc2cccc(C(=O)/C=C/c3cccc(F)c3)c2)c1 in this assay.
RESULT: N

QUERY: GET /call?item= CCCNNC(=O)c1ccc(-c2ccc(NC(=O)CCCCCCC(=O)N[C@H](C(=O)N3C[C@H](O)C[C@H]3C(=O)N[C@@H](C)c3ccc(-c4scnc4C)cc3)C(C)(C)C)cc2)cc1 returns the recorded outcome of this test.
RESULT: N

QUERY: Entry CC1=C(C)C(=O)C(Nc2ccc(C)cc2)=C(Br)C1=O : call = ?
RESULT: N

QUERY: What did this assay record as the result for O=C(N/N=C/c1cc2ccccc2nc1Cl)c1cc(-c2nc3ccccc3[nH]2)nc2ccccc12 ?
RESULT: N

QUERY: Just curious, what result did CCCc1cc2cc(-n3nc(CC)c4c3CC(C)(C)CC4=O)cc(NC3CCC(O)CC3)c2c(=O)[nH]1 (configuration not stated) get here?
RESULT: N
